experiment: yeast display, Sf9 membrane polyspecificity reagent, FACS + sequencing; frameworks hold sequencing errors
MEASUREMENT LABEL: polyreactivity (PSR sort gate)

# SEQUENCE, polyreactivity (PSR sort gate)
records = [
    ("QVQLVESGGGLVQAGGSLRLSCAASGRIFYTNGMAWYRQAPGKERELVATIRSGDGRTYYADSVKGRFTISRDNAKNTVYLQMNSLKPEDTAVYYCNASRVVYRQAYLYGFDYWGQGTQVTVSS", "low polyreactivity"),
    ("QVQLVESGGGLVQAGGSLRLSCAASGFIFSKNAMGWYRQAPGKERELVARITRRVGSTYYADSVKGRFTISRDNAKNTVYIQMNSLKPEDTAVYYCAVLPRVKDGTGGDYWGQGTQVTVSS", "high polyreactivity"),
    ("QVQLGESGGGLVQAGGSLRLSCAASGSIFQKYTMGWYRQAPGKERELVAAITRSGGSTYYADSVKGRFTISRDNAKNTVDFQMNSLKPEDTAVYYCAAPAAGDEYDYWGQVTQVTVSS", "high polyreactivity"),
    ("QVQLVESGGGLVQAGGSLRLSCAASGRIFKVNTMGWYRQAPGKERELVASIRGGGSTNYADSVKGRFTISRDNAKNTVNLQMHSPKPEDTAVYYCAAGTSKPTPIYGYWGQGTQVTVSS", "low polyreactivity"),
    ("QVQLVESGGGLVQAGGSLRLSCAASGRIFGAYAMGWYRQARGKERELVAAIDIRGGNTYYADSVKGRFTISRDNAKNTVYLQMNSLKPEDTAVYYCPADTWYDAYNYWGQGTQVTVSS", "low polyreactivity"),
]

// input: 5 sequences below; output: polyreactivity (PSR sort gate) for each
1. QVQLVESGGGLVQAGGSLRLSCAASGNTFGNYGKGWYRQAPGKEREFVAAITSRGTSTYYADSVKGRFTISRDNAKNTVYLQMNSLKPEDTAVYYCNARPRYKYPRYDYWGQGTQVTVSS
2. QVQLVESGGGLVQAGGSLRLSCAASGRIFWAYAMGWYRQAPGKERELVAGITFTGGRTYYADSVKGRFTISRDNAKNTVYLQMNSLKPEDTAVYYCAAAGLDVGRKDRDGYWGQGTQVTVSS
3. QDQLVESGGGLVQAGGSLRLSCAASGFTFAGYAMGWYRQAPGKERELVAAITYSGGRTYYADSVKGRFTISRDNAKNTVYLQMNSLKPEDTAVYYCAARNYRYPGRYVYWGQGTQVTVSS
4. QVQLVESGGGLVQAGGSLRLSCAASGGIFDSYAMGWYRQAPGKERELVAAISRSGSTNYADSVKGRFTISRDNAKNTVYLQMYSLKPEDTAVYYCAASVRGIRYDYWGQGTQVTVSS
5. QVQLVESGGGLVQAGGSLRLSCAASGSTISRNAMGWSRQAPGKERELVAAISWRGGRTYYADSVKGRFTISRDNAKNTVYLQMNSLKPEDTAVYYCAAEHKYRYDYWGQGTQVTVSS

(A)
1: high polyreactivity; 2: low polyreactivity; 3: high polyreactivity; 4: low polyreactivity; 5: low polyreactivity

(Q) I am curious: what polyreactivity (PSR sort gate) value has been reported for `QVQLVESGGGLVQAGGSLRLSCAASGSIFWRNAMGWYRQAPGKERELVAAISRVGSTNYADSVKGRFTISRDNAKNTVYLQMNSLKPEDTAVYYCAADGTVVRDFDYWGQGTQVTVSS` ?
(A) low polyreactivity

Ref: the nanobody polyreactivity screen of Harvey et al. (2022)
